Molecular target: human plasmatic BChE (hBChE; E.C. 3.1.1.8) (Homo sapiens)
Sequence (P06276 29-602): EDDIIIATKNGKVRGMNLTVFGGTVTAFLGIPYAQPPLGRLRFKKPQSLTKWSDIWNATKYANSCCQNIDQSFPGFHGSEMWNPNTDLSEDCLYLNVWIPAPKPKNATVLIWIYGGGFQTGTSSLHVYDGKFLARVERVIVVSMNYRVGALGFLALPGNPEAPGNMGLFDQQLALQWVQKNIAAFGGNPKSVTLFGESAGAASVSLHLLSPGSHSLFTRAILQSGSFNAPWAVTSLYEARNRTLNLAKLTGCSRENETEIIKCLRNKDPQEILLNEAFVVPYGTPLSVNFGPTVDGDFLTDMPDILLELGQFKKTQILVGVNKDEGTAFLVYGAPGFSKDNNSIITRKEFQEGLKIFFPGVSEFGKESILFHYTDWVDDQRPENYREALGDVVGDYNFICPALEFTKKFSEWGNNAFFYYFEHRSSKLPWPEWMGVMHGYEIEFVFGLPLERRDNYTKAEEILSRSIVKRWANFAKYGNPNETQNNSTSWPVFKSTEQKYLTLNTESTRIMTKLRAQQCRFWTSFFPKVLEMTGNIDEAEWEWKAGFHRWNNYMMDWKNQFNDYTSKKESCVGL
Assay: biochemical
Conditions: human plasmatic BChE, Ellman's method, phosphate buffer pH 7.4; mean of three independent determinations ± SD; read-out: IC50 (µM) ± SD hBChE
quantity.kind: log10(IC50) (log10 of the value in µM)
All values: base-10 log of IC50 in µM.

Recorded log10(IC50) for COc1ccc2nc3c(c(NCCCCNC(=S)NC45CC6CC(CC(C6)C4)C5)c2c1)CCCC3 , please?
-0.01

Recorded log10(IC50) for COc1ccc2nc3c(c(NCCCCCN)c2c1)CCCC3 , please?
1.47

Recorded log10(IC50) for COc1ccc2nc3c(c(NCCCCCCCN)c2c1)CCCC3 , please?
0.86

Recorded log10(IC50) for COc1ccc2nc3c(c(NCCNC(=S)NC45CC6CC(CC(C6)C4)C5)c2c1)CCCC3 , please?
0.78

Recorded log10(IC50) for COc1ccc2nc3c(c(NCCCCN)c2c1)CCCC3 , please?
0.96

Recorded log10(IC50) for COc1ccc2nc3c(c(NCCCCCNC(=S)NC45CC6CC(CC(C6)C4)C5)c2c1)CCCC3 , please?
-0.96

Recorded log10(IC50) for COc1ccc2nc3c(c(NCCCCCCCCN)c2c1)CCCC3 , please?
1.00

Recorded log10(IC50) for COc1ccc2nc3c(c(NCCCCCCNC(=S)NC45CC6CC(CC(C6)C4)C5)c2c1)CCCC3 , please?
-0.48

Recorded log10(IC50) for COc1ccc2nc3c(c(NCCCN)c2c1)CCCC3 , please?
1.70

====

Target: human plasmatic BChE (hBChE; E.C. 3.1.1.8) (Homo sapiens)
Assay: biochemical
quantity.kind: pIC50
Just the number, please; pIC50 means minus log10 of the concentration in mol/L.

Kindly state the measured pIC50 obtained for S=C=NC12CC3CC(CC(C3)C1)C2 [Compound 10, 1-Adamantyl isothiocyanate, reference compound] with human plasmatic BChE (hBChE; E.C. 3.1.1.8) (Homo sapiens).
4.01

====

Give SI (selectivity index for hAChE) for every item shown.
Target: human recombinant AChE (hAChE; E.C. 3.1.1.7) (Homo sapiens, UniProt P22303)
Sequence (P22303 32-614): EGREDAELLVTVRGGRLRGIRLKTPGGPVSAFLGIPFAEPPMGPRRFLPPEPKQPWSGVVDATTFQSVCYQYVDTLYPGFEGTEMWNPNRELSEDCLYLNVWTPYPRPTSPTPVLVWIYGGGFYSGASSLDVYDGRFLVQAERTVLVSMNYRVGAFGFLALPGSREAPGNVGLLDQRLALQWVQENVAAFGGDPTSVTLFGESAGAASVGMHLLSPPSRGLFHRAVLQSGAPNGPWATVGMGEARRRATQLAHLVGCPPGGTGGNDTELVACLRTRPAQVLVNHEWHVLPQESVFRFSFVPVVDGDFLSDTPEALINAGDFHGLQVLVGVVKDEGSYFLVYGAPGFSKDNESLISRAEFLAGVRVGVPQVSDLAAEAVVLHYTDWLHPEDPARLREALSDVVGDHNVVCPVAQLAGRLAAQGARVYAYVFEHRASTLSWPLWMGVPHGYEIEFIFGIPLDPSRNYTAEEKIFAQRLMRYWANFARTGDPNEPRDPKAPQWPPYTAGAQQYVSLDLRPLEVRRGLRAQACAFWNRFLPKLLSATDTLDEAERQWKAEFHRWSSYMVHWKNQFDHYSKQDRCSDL
Assay: biochemical
Conditions: ratio of IC50 hBChE towards IC50 hAChE
Keep the answer to the number alone.

Recorded SI (selectivity index for hAChE) for COc1ccc2nc3c(c(NCCCN)c2c1)CCCC3 [Compound 4] , please?
25.8

Recorded SI (selectivity index for hAChE) for COc1ccc2nc3c(c(NCCN)c2c1)CCCC3 [Compound 3] , please?
12.1

Recorded SI (selectivity index for hAChE) for COc1ccc2nc3c(c(NCCCNC(=S)NC45CC6CC(CC(C6)C4)C5)c2c1)CCCC3 [Compound 12] , please?
2.6

Recorded SI (selectivity index for hAChE) for COc1ccc2nc3c(c(NCCCCCCCCN)c2c1)CCCC3 [Compound 9] , please?
21.4

Recorded SI (selectivity index for hAChE) for COc1ccc2nc3c(c(NCCCCNC(=S)NC45CC6CC(CC(C6)C4)C5)c2c1)CCCC3 [Compound 13] , please?
0.5

====

Give SI (selectivity index for hAChE) for every item shown.
Biological target: human recombinant AChE (hAChE; E.C. 3.1.1.7) (Homo sapiens, UniProt P22303)
Assay: biochemical
Settings: ratio of IC50 hBChE towards IC50 hAChE
Keep the answer to the number alone.

Recorded SI (selectivity index for hAChE) for COc1ccc2nc3c(c(NCCNC(=S)NC45CC6CC(CC(C6)C4)C5)c2c1)CCCC3 , please?
1.2

Recorded SI (selectivity index for hAChE) for COc1ccc2nc3c(c(NCCCCCCCN)c2c1)CCCC3 , please?
8.4

Recorded SI (selectivity index for hAChE) for S=C=NC12CC3CC(CC(C3)C1)C2 [Compound 10, 1-Adamantyl isothiocyanate, reference compound] , please?
3.9

Recorded SI (selectivity index for hAChE) for COc1ccc2nc3c(c(NCCCCN)c2c1)CCCC3 , please?
6.5

Recorded SI (selectivity index for hAChE) for COc1ccc2nc3c(c(NCCCCCCCCNC(=S)NC45CC6CC(CC(C6)C4)C5)c2c1)CCCC3 , please?
0.2

Recorded SI (selectivity index for hAChE) for COc1ccc2nc3c(c(NCCCCCCN)c2c1)CCCC3 , please?
51.6

Recorded SI (selectivity index for hAChE) for COc1ccc2nc3c(c(NCCCCCCNC(=S)NC45CC6CC(CC(C6)C4)C5)c2c1)CCCC3 , please?
0.2

Recorded SI (selectivity index for hAChE) for COc1ccc2nc3c(c(NCCCCCCCNC(=S)NC45CC6CC(CC(C6)C4)C5)c2c1)CCCC3 , please?
0.04

Recorded SI (selectivity index for hAChE) for COc1ccc2nc3c(c(NCCCCCN)c2c1)CCCC3 , please?
8.6

Recorded SI (selectivity index for hAChE) for COc1ccc2nc3c(c(NCCCCCNC(=S)NC45CC6CC(CC(C6)C4)C5)c2c1)CCCC3 , please?
0.2

====

Molecular target: human recombinant AChE (hAChE; E.C. 3.1.1.7) (Homo sapiens, UniProt P22303)
Assay: biochemical
Conditions: human recombinant AChE, Ellman's method, phosphate buffer pH 7.4; mean of three independent determinations ± SD
quantity.kind: log10 IC50 (log10 of the value in µM)
All values: base-10 log of IC50 in µM.

Recorded log10 IC50 for COc1ccc2nc3c(c(NCCCN)c2c1)CCCC3 , please?
0.29

Recorded log10 IC50 for COc1ccc2nc3c(c(NCCN)c2c1)CCCC3 , please?
0.73

Recorded log10 IC50 for S=C=NC12CC3CC(CC(C3)C1)C2 [Compound 10, 1-Adamantyl isothiocyanate, reference compound] , please?
1.40

Recorded log10 IC50 for COc1ccc2nc3c(c(NCCNC(=S)NC45CC6CC(CC(C6)C4)C5)c2c1)CCCC3 , please?
0.70

Recorded log10 IC50 for COc1ccc2nc3c(c(NCCCCCCCNC(=S)NC45CC6CC(CC(C6)C4)C5)c2c1)CCCC3 , please?
0.54

Recorded log10 IC50 for COc1ccc2nc3c(c(NCCCCCCNC(=S)NC45CC6CC(CC(C6)C4)C5)c2c1)CCCC3 , please?
0.32

Recorded log10 IC50 for COc1ccc2nc3c(c(NCCCCNC(=S)NC45CC6CC(CC(C6)C4)C5)c2c1)CCCC3 , please?
0.31

Recorded log10 IC50 for COc1ccc2nc3c(c(NCCCNC(=S)NC45CC6CC(CC(C6)C4)C5)c2c1)CCCC3 , please?
-0.28

Recorded log10 IC50 for COc1ccc2nc3c(c(NCCCCCCCCN)c2c1)CCCC3 , please?
-0.33

Recorded log10 IC50 for COc1ccc2nc3c(c(NCCCCCCCCNC(=S)NC45CC6CC(CC(C6)C4)C5)c2c1)CCCC3 , please?
0.21

Recorded log10 IC50 for COc1ccc2nc3c(c(NCCCCCCCN)c2c1)CCCC3 , please?
-0.07

Recorded log10 IC50 for COc1ccc2nc3c(c(NCCCCCN)c2c1)CCCC3 , please?
0.54

Recorded log10 IC50 for COc1ccc2nc3c(c(NCCCCCNC(=S)NC45CC6CC(CC(C6)C4)C5)c2c1)CCCC3 , please?
-0.33

Recorded log10 IC50 for COc1ccc2nc3c(c(NCCCCN)c2c1)CCCC3 , please?
0.15

Recorded log10 IC50 for COc1ccc2nc3c(c(NCCCCCCN)c2c1)CCCC3 , please?
-0.68

====

Target: human plasmatic BChE (hBChE; E.C. 3.1.1.8) (Homo sapiens)
Assay: biochemical
Conditions: human plasmatic BChE, Ellman's method, phosphate buffer pH 7.4; mean of three independent determinations ± SD; read-out: IC50 (µM) ± SD hBChE
Where a name gives a salt, the structure may show the parent alone.
quantity.kind: IC50 (µM)
Field: numeric (µM). Do not append units.

Kindly state the measured IC50 obtained for COc1ccc2nc3c(c(NCCCCCCCCNC(=S)NC45CC6CC(CC(C6)C4)C5)c2c1)CCCC3 with human plasmatic BChE (hBChE; E.C. 3.1.1.8) (Homo sapiens).
0.26

Kindly state the measured IC50 obtained for NC12CC3CC(CC(C3)C1)C2 [amantadine, 1-adamantylamine hydrochloride, reference compound] with human plasmatic BChE (hBChE; E.C. 3.1.1.8) (Homo sapiens).
103

Kindly state the measured IC50 obtained for COc1ccc2nc3c(c(NCCCCCCCNC(=S)NC45CC6CC(CC(C6)C4)C5)c2c1)CCCC3 with human plasmatic BChE (hBChE; E.C. 3.1.1.8) (Homo sapiens).
0.15

Kindly state the measured IC50 obtained for COc1ccc2nc3c(c(NCCN)c2c1)CCCC3 with human plasmatic BChE (hBChE; E.C. 3.1.1.8) (Homo sapiens).
64.4

Kindly state the measured IC50 obtained for COc1ccc2nc3c(c(NCCCCCCN)c2c1)CCCC3 with human plasmatic BChE (hBChE; E.C. 3.1.1.8) (Homo sapiens).
10.8

Kindly state the measured IC50 obtained for COc1ccc2nc3c(c(NCCCNC(=S)NC45CC6CC(CC(C6)C4)C5)c2c1)CCCC3 with human plasmatic BChE (hBChE; E.C. 3.1.1.8) (Homo sapiens).
1.39
